Tested on: Rabbit Skeletal myofibrils (rabbit psoas muscle)
Experiment: Myofibril ATPase assay (PK/LDH NADH-coupled), skeletal myofibrils
Format: biochemical
Conditions: Table 8
Metric: Rabbit Psoas IC25 (µM)

> print(dat)
                                    compound  reported.measurement
 1  C[C@@H](NC(=O)C1(N2Cc3c(ccc(F)c3F)NC2=O)CC1)c1ncc(C#N)cc1F [Compound B268]                  6.91
 2  O=C(CN1Cc2c(ccc(F)c2F)NC1=O)N[C@H]1COc2ccc(F)cc2C1 [Compound B88]                   100
 3  C[C@@H](NC(=O)CN1Cc2cc(F)cc(F)c2NC1=O)c1ccc(C#N)cc1F [Compound B28]                   100
 4  Cc1cccc2c1C1(CC1)N(CC(=O)N[C@@H](C)c1ncc(C#N)nc1C)C(=O)N2 [Compound B309]                  2.23
 5  Cc1cnncc1[C@@H](C)NC(=O)CN1Cc2c(ccc(F)c2F)NC1=O [Compound B46]                0.6601
 6  CC(NC(=O)CN1Cc2cc(F)ccc2NC1=O)c1ccc(C#N)cc1F (single isomer, unassigned) [Compound B206]               0.01129
 7  C[C@H](NC(=O)CN1Cc2cc(F)ccc2NC1=O)c1ccc(F)cc1F [Compound B247]               0.03205
 8  O=C(CN1Cc2c(ccc(F)c2F)NC1=O)N[C@H]1COc2cc(F)cc(F)c21 [Compound B148]                0.4985
 9  C[C@H](NC(=O)CN1C(=O)Nc2ccc(F)cc2C12CC2)c1ccc(C#N)nn1 [Compound B335]                100.00
10  C[C@H](NC(=O)[C@@H](C)N1Cc2c(Br)cccc2NC1=O)c1ccc(F)cc1F [Compound B228]                0.2844
11  Cc1noc([C@@H](C)NC(=O)CN2Cc3c(ccc(F)c3F)NC2=O)n1 [Compound B71]                   100
12  C[C@@H](NC(=O)CN1C(=O)Nc2ccc(F)cc2C12CC2)c1cnc(C#N)cn1 [Compound B336]                  0.17
13  C[C@H](NC(=O)CN1Cc2c(ccc(F)c2C#N)NC1=O)c1ncc(C#N)cc1F [Compound B132]                0.0313
14  C[C@H](NC(=O)CN1C(=O)Nc2ccccc2C1(C)C)c1ccc(F)cc1F [Compound B245]                 9.295
15  Cc1cc(C#N)nnc1[C@H](C)NC(=O)CN1C(=O)Nc2ccc(F)cc2C12CC2 [Compound B329]                  0.13
16  C[C@@H](NC(=O)CN1Cc2cc(C#N)ccc2NC1=O)c1ncc(F)cc1F [Compound B196]                   100
17  C[C@@H](NC(=O)CN1Cc2c(ccc(F)c2F)NC1=O)c1ncc(-n2ncnn2)cc1F [Compound B264]                100.00
18  CCc1cc(F)cnc1[C@H](C)NC(=O)CN1Cc2c(ccc(F)c2F)NC1=O [Compound B15]                   100
19  CC(C)c1cc(F)cnc1[C@H](C)NC(=O)CN1Cc2c(ccc(F)c2F)NC1=O [Compound B21]                   100

Source: patent US12509431B2
